Origin of measurements: patent US10449216B2

# Target under test: WT mGluR1α (Rattus norvegicus, UniProt P23385)
# Construct: expressed in transfected cells; host or cells: HEK293
# Sequence (P23385 19-1199): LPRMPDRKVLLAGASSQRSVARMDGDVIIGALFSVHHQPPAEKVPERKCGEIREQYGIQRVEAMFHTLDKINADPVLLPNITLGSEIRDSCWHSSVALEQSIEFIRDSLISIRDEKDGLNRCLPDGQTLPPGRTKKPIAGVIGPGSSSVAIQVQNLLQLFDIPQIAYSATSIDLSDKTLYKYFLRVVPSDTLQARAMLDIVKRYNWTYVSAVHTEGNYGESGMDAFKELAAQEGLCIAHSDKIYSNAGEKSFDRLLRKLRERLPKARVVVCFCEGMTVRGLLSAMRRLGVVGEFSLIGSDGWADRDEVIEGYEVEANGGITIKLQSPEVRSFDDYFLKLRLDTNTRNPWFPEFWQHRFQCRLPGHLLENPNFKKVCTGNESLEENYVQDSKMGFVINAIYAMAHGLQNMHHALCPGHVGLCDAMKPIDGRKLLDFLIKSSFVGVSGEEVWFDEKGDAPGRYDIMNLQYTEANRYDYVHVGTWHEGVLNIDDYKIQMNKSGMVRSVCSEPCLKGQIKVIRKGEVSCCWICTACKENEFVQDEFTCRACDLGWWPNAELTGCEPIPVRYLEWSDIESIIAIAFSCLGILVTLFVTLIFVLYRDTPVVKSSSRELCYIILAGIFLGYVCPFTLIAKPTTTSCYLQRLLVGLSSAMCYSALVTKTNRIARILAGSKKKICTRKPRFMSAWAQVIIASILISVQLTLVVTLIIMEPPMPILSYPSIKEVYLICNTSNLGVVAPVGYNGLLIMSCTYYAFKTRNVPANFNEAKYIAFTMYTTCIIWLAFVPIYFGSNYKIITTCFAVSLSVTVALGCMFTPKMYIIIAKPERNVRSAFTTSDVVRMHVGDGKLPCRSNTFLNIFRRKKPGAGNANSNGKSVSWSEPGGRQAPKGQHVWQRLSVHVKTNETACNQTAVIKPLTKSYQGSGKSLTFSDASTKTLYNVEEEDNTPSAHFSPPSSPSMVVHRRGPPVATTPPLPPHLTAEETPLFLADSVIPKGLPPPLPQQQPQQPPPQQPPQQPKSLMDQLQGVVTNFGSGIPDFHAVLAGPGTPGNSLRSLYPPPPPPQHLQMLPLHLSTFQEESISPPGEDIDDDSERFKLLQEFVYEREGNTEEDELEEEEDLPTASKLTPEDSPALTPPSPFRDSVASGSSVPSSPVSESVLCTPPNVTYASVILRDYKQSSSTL
# Experiment description: Single cell Fura-2 [Ca^2+]i response in HEK293 cells transiently transfected with WT mGluR1α
# Assay type: cell-based
# Condition notes: Ro 67-4853 300 nM; read-out: EC50 of Ca^2+
Measurement kind: EC50 (µM)
Just the number in µM, nothing appended.

Any idea what EC50 was measured for [Ca+2] [[Ca^2+]o] ?
700

---

# Target under test: mGluR1α E325I (Rattus norvegicus, UniProt P23385, E325I)
# Construct: expressed in transfected cells; host or cells: HEK293
# Sequence (P23385 19-1199 E325I): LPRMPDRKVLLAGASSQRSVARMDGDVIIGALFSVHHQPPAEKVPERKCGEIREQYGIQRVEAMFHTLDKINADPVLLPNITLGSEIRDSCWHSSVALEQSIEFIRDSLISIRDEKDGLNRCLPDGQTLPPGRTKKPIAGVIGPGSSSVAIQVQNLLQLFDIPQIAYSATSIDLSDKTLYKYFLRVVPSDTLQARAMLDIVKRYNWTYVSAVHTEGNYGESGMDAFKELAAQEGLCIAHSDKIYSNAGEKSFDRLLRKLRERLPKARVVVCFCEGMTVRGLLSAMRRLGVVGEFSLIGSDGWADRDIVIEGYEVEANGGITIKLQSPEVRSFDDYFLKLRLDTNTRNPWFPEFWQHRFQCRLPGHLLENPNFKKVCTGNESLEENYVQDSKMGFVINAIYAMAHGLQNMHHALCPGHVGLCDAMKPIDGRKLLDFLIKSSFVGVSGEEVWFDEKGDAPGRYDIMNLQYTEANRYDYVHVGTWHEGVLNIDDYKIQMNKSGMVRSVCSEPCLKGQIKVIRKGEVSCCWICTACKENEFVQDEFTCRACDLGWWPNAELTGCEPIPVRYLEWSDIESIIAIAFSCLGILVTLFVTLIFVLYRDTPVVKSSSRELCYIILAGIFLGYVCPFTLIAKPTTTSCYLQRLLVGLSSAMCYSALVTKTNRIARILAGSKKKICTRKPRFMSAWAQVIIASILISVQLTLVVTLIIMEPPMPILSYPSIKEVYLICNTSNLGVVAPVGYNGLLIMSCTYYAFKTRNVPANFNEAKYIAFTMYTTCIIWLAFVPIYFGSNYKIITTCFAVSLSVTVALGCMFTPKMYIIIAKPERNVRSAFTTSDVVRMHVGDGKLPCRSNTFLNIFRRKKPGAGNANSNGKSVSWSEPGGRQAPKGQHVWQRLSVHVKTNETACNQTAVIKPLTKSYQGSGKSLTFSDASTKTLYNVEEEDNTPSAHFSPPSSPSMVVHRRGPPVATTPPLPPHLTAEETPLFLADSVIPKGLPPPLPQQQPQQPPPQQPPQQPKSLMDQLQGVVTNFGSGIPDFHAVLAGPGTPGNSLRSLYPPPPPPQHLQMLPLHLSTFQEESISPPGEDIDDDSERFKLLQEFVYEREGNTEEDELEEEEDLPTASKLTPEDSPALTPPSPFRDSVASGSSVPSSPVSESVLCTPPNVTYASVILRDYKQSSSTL
# Experiment description: [^3H]-L-Quis binding to membranes of HEK293 cells expressing E325I
# Condition notes: with 300 nM [^3H]-L-Quis, read-out: KD, [Ca^2+]o-binding affinity of mGluR1α
Measurement kind: Kd

Would you kindly share the measured Kd for [Ca+2] [[Ca^2+]o] ?
> 20 mM
